measurement target: GID4 (Homo sapiens, UniProt Q8IVV7)
Construct: residues 116-300; N-terminal Strep-SUMO-3C-6xHis-Avi, HRV-3C cleaved, Avi-tag kept and biotinylated; E. coli BL21(DE3)
Sequence (Q8IVV7 116-300): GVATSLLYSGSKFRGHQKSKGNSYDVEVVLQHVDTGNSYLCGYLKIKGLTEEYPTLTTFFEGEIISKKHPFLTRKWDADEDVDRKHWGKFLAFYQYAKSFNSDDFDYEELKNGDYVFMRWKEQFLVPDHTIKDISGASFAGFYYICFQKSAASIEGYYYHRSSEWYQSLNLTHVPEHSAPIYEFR
assay: SPR
Type: binding
cond: read-out: KD^GID4
endpoint: Kd

GET /values?readout=Kd&system=GID4 (Homo sapiens, UniProt Q8IVV7)&item= Cc1oc(-c2cc(F)cc(N=C(N)N3CCC(C)(C)CC3)c2)cc1C(=O)N1CCCCC1 0.03 µM

====

measurement target: GID4 (Homo sapiens, UniProt Q8IVV7)
Construct: residues 116-300; N-terminal Strep-SUMO-3C-6xHis-Avi, HRV-3C cleaved, Avi-tag kept and biotinylated; E. coli BL21(DE3)
assay: biochemical
Set-up: SPR binding affinity to immobilized biotinylated GID4
cond: read-out: KD by SPR
Consider the following compounds; for each one, report its Kd.
Give bare numbers, in nM.

Answered examples (3):
compound | measurement target | val
Cc1oc(-c2cc(F)cc(N=C(N)N3CCC(C)(C)CC3)c2)cc1C(=O)N(C)C [compound 12] | GID4 (Homo sapiens, UniProt Q8IVV7) | 60
CC(=O)N1CCN(CC2CCN(C(=O)c3cc(-c4cc(F)cc(N=C(N)N5CCC(C)(C)CC5)c4)oc3C)CC2)CC1 [compound 22] | GID4 (Homo sapiens, UniProt Q8IVV7) | 140
COC1CCCN(C(=O)c2cc(-c3cc(F)cc(N=C(N)N4CCC(C)(C)CC4)c3)oc2C)C1 (racemic) [compound 19] | GID4 (Homo sapiens, UniProt Q8IVV7) | 50

# evaluate next
Which Kd value is on record for COCCOCCC1CCCN(C(=O)c2cc(-c3cc(F)cc(N=C(N)N4CCC(C)(C)CC4)c3)oc2C)C1 (racemic) [compound 21] ? 50

====

measurement target: GID4 (Homo sapiens)
Construct: residues 116-300, N-terminal 6xHis-SUMO tag (DSF construct)
Design: Differential scanning fluorimetry, thermal shift of GID4
cond: binder
Sequence (Q8IVV7 whole entry, the tested form may be a part): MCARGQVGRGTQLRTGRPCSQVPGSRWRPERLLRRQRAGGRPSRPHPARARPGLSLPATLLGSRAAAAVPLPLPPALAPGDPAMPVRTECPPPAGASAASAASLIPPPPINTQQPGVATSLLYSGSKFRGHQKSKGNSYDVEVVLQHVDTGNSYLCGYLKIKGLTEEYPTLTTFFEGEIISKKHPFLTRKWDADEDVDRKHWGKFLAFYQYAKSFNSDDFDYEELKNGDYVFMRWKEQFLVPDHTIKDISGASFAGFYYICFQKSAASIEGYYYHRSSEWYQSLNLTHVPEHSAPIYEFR
Give ΔTm by DSF (°C) for every item shown.

Consider the worked cases shown below.
input smiles | ΔTm by DSF (°C)
COC1CCN(C(=O)c2cc(-c3cc(F)cc(N=C(N)N4CCC(C)(C)CC4)c3)oc2C)CC1 | 7.1 ± 0,04 °C
COCCOCCC1CCN(C(=O)c2cc(-c3cc(F)cc(N=C(N)N4CCC(C)(C)CC4)c3)oc2C)CC1 | 6.5 ± 0,03 °C

May I ask what ΔTm by DSF (°C) has been recorded for Cc1oc(-c2cc(F)cc(N=C(N)N3CCC(C)(C)CC3)c2)cc1C(=O)Nc1ccccc1 ? 3.9 ± 0.03 °C

====

measurement target: GID4 (Homo sapiens, UniProt Q8IVV7)
Construct: residues 116-300; N-terminal Strep-SUMO-3C-6xHis-Avi, HRV-3C cleaved, Avi-tag kept and biotinylated; E. coli BL21(DE3)
Sequence (Q8IVV7 116-300): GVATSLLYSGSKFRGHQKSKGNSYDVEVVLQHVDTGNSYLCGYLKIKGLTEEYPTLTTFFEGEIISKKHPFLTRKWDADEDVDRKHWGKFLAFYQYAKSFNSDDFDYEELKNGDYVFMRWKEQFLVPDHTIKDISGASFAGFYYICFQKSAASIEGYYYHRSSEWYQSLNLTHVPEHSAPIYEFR
assay: biochemical
Design: SPR binding affinity to immobilized biotinylated GID4
cond: read-out: KD by SPR
Please respond with reported Kd for every item in the list.
Give bare numbers, in nM.

Example compounds with recorded Kd:
compound | units text | Kd
Cc1oc(-c2cc(F)cc(/N=C(/N)N3CCC(C)(C)CC3)c2)cc1C(=O)N1CCOCC1 | nM | 90
COC1CCN(C(=O)c2cc(-c3cc(F)cc(N=C(N)N4CCC(C)(C)CC4)c3)oc2C)CC1 | nM | 130
Cc1oc(-c2cc(F)cc(/N=C(/N)N3CCC(C)(C)CC3)c2)cc1C(=O)N1CCN(C)CC1 | nM | 120

Item: CC(=O)N1CCN(CC2CCCN(C(=O)c3cc(-c4cc(F)cc(N=C(N)N5CCC(C)(C)CC5)c4)oc3C)C2)CC1 (racemic) Test system: GID4 (Homo sapiens, UniProt Q8IVV7) Read-out: Kd Value: ? 90
